# maps each entry to its EC50
Molecular target: Beta-3 adrenergic receptor (Homo sapiens)
Sequence (P13945 whole entry): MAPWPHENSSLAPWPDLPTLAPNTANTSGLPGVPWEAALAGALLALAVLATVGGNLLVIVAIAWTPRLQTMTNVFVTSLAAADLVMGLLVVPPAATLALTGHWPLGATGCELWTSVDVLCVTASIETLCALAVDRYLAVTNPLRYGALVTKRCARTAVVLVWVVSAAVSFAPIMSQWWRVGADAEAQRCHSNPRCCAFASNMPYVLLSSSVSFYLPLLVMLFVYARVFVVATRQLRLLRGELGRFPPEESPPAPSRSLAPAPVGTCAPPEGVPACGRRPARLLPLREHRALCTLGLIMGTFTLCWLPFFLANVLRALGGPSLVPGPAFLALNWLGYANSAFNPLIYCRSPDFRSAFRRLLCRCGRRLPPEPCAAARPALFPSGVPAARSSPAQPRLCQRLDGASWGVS
Assay: Agonist activity against cloned human beta-3 adrenergic receptor

{"SMILES REPRESENTATION": "O=S(=O)(Nc1ccc(CCNC[C@H](O)COc2ccc(O)cc2)cc1)c1ccccc1", "EC50 [nM]": 6.3}
{"SMILES REPRESENTATION": "O=S(=O)(Nc1ccc(CCNC[C@H](O)COc2ccc(O)cc2)cc1)C1CCCCC1", "EC50 [nM]": 1500}
{"SMILES REPRESENTATION": "Nc1ccc(CCNC[C@H](O)COc2ccc(O)cc2)cc1", "EC50 [nM]": 440}
